Settings: [M+Na]+; instrument: DT; stepped-field
OBSERVATION_TYPE: collision cross section (N2) (Å²)

# annotated cases, reported collision cross section (N2) shown
1) CCCCCCCCCCCCC=CC[C@@H](O)[C@H](COP(=O)([O-])OCC[N+](C)(C)C)NC(=O)CC=CCCCCCCCCCCCCCCCCCCC = 303.9
2) CC(=O)NC1C(O)OC(CO)C(O)C1OC1OC(CO)C(O)C(O)C1O (stereo unspecified) = 190.2
3) CCCC/C=C\CCCCCCCC(=O)OC[C@H](COP(=O)(O)OCCN)OC(=O)CCCCCC/C=C\C/C=C\C/C=C\CCCCC = 273.6
4) CCCCC/C=C\C/C=C\CCCCCCCCCC(=O)O[C@H](COC(=O)CCCCCCC/C=C\C/C=C\CCCCC)COP(=O)(O)OCCN = 290

[a] N=C(N)NCCC[C@H](NC(=O)CNC(=O)[C@H](CC(=O)O)NC(=O)[C@@H](N)CO)C(=O)NCC(=O)O
[b] CCCCCCCCCCCCC=CC[C@@H](O)[C@H](CO[C@@H]1O[C@H](CO)[C@@H](O)C(O)C1O)NC(=O)CC=CCC=CCCCCCCCCCCCCCCCCC (stereo partly specified)
Pick one: a or b . Which has the bigger collision cross section (N2) number? Indicate which entry you chose by stating its label.
b

---

Conditions: [M-H]-; instrument: TW; calibrated with phosphatidylcholines (ESI+) and phosphatidylethanolamines (ESI-)
OBSERVATION_TYPE: collision cross section (N2) (Å²)

1. CCCCC/C=C\C/C=C\CCCCCCCCCCCC(=O)O[C@H](COC(=O)CCCCCCCCCCC)COP(=O)(O)O[C@H]1C(O)C(O)C(O)[C@@H](O)C1O (stereo partly specified) [PI(34:2)] = 282.4
2. CCCCC/C=C\C/C=C\CCCCCCCCCCCC(=O)O[C@H](COC(=O)CCCCCCC/C=C\CCCCCC)COP(=O)(O)O[C@H]1C(O)C(O)C(O)[C@@H](O)C1O (stereo partly specified) [PI(38:3)] = 293
3. CCCCCCCCCCCCC=CC[C@@H](O)[C@H](CO)NC(=O)CCCCCCCCCCCCCCCCC [Cer(d18:1/18:0)] = 249.7
4. CCCCCCCCCCCCCCCCCC(=O)O[C@H](CO)COP(=O)(O)OCCN [LPE(18:0)] = 212.9
5. CCCCC/C=C\C/C=C\CCCCCCCCCCCC(=O)O[C@H](COC(=O)CCCCCCC/C=C\CCCCCC)COP(=O)(O)OC[C@H](N)C(=O)O [PS(38:3)] = 281.7
6. CCCCC/C=C\C/C=C\CCCCCCCC(=O)O[C@H](COC(=O)CCCCCCCCCCCCCCC)COP(=O)(O)O [PA(34:2)] = 253.4

---

Conditions: [M+NH4]+; instrument: DT; single field
OBSERVATION_TYPE: collision cross section (N2) (Å²)

1) CCCCC/C=C\C/C=C\C/C=C\C/C=C\CCCC(=O)OC[C@@H](COC(=O)CCCCCCC/C=C\CCCCCC)OC(=O)CCCC/C=C\C/C=C\C/C=C\CCCCC = 316.06
2) CC/C=C\C/C=C\C/C=C\C/C=C\C/C=C\CCCC(=O)O[C@@H](CO)COC(=O)CCCCCCC/C=C\C/C=C\CCCC = 256.98
3) CC/C=C\C/C=C\C/C=C\C/C=C\C/C=C\C/C=C\CCC(=O)O[C@@H](CO)COC(=O)CCCCCCC/C=C\CCCC = 252.3
4) CCCCCCCCCCCCCCCCCCCC(=O)OC[C@@H](COC(=O)CCCCCCCCCCCC)OC(=O)CCCCCCCCCCCCCCCCCCC = 331.32
5) CC/C=C\C/C=C\C/C=C\C/C=C\C/C=C\CCCC(=O)O[C@H](COC(=O)CCCCCCCCCCCCCCC)COC(=O)CCCCCCCCCCCCCCCCCCCCC = 334.35
6) CCCCC/C=C\C/C=C\CCCCCCCCCCCC(=O)O[C@@H](CO)COC(=O)CCCCCCCCCCCCC = 266.09

---

Details: [M+Na-2H]-; instrument: DT; single field, calibrated with ESI Low Concentration Tuning Mix (Agilent)
OBSERVATION_TYPE: collision cross section (N2) (Å²)

1) O=c1nc[nH]c2c1ncn2[C@@H]1O[C@H](COP(=O)(O)OP(=O)(O)OP(=O)(O)O)[C@@H](O)[C@H]1O [INOSINE TRIPHOSPHATE] = 182.8
2) Cc1cn([C@H]2C[C@H](O)[C@@H](COP(=O)(O)OP(=O)(O)OC3O[C@H](CO)[C@@H](O)[C@H](O)[C@H]3O)O2)c(=O)[nH]c1=O (stereo partly drawn) [DTDP-D-GLUCOSE] = 218.2
3) Nc1ncnc2c1ncn2[C@H]1C[C@H](O)[C@@H](COP(=O)(O)OP(=O)(O)OP(=O)(O)O)O1 [DEOXYADENOSINE TRIPHOSPHATE] = 185.9
4) N[C@@H](CCC(=O)N[C@@H](CS)C(=O)NCC(=O)O)C(=O)O [GLUTATHIONE REDUCED] = 164.8
5) CC(=O)NC1C(OP(=O)(O)OP(=O)(O)OCC2OC(n3ccc(=O)[nH]c3=O)C(O)C2O)OC(CO)C(O)C1O (configuration not stated) [URIDINE DIPHOSPHATE-N-ACETYLGALACTOSAMINE] = 228.2
6) N[C@@H](COP(=O)(O)O)C(=O)O [PHOSPHOSERINE] = 135.1
7) O=c1[nH]c(=O)c2ncn([C@@H]3O[C@H](CO)[C@@H](O)[C@H]3O)c2[nH]1 [XANTHOSINE] = 161.9

---

Conditions: [M+H]+; instrument: DT; single field, calibrated with Agilent tune mix (Agilent)
OBSERVATION_TYPE: collision cross section (N2) (Å²)

1. CC/C=C\C/C=C\C/C=C\C/C=C\CCCCC(=O)OC[C@H](COP(=O)(O)O[C@H]1C(O)C(O)C(O)[C@@H](O)C1O)OC(=O)CCCCCCCCCCCCCCCCCCC (stereo partly specified) = 302.3
2. CC/C=C\C/C=C\C/C=C\C/C=C\C/C=C\C/C=C\CCC(=O)O[C@H](COC(=O)CCCCCCCCCCCCCCC)COP(=O)(O)OC[C@@H](O)CO = 289.3
3. CCCCCCCCCCCCC=CC[C@@H](O)[C@H](CO)NC(=O)CC=CCCCCCCCCCCCCCCCCCCC = 273.5
4. CCCCCCCCCC/C=C\CCCCCCCCCC(=O)O[C@H](COC(=O)CCCCCCCCCCC)COP(=O)(O)O[C@H]1C(O)C(O)C(O)[C@@H](O)C1O (stereo partly specified) = 294.9
5. CCCCC/C=C\C/C=C\CCCCCCCC(=O)O[C@H](COC(=O)CCCCCCCCCCCCCCC)COP(=O)(O)O = 267.5
6. CCCCCCCCCCCCCCC(=O)OC[C@@H](O)COP(=O)([O-])OCC[N+](C)(C)C = 225

---

Conditions: [M-H]-; instrument: DT; single field, calibrated with ESI Low Concentration Tuning Mix (Agilent)
OBSERVATION_TYPE: collision cross section (N2) (Å²)

1. Cc1ncc(CO)c(C=O)c1O [PYRIDOXAL] = 129

[I] CCCC[C@H](N)C(=O)O [NORLEUCINE]
[II] Cc1cn([C@H]2C[C@H](O)[C@@H](COP(=O)(O)OP(=O)(O)OC3O[C@H](CO)[C@@H](O)[C@H](O)[C@H]3O)O2)c(=O)[nH]c1=O (stereo partly drawn) [DTDP-D-GLUCOSE]
Endpoint returns the identifier whose collision cross section (N2) is numerically larger, either I or II . Refer to your chosen item by its label in the answer.
II
(II: 209.5 Å², I: 132 Å²)

---

Conditions: [M+H]+; instrument: TW
OBSERVATION_TYPE: collision cross section (N2) (Å²)

1. CCOC(=O)NCCOc1ccc(Oc2ccccc2)cc1 = 178.44

[1] C=C1C[C@@]23CC[C@H]4[C@@](C)(CCC[C@@]4(C)C(=O)O[C@@H]4O[C@H](CO)[C@@H](O)[C@H](O)[C@H]4O)[C@@H]2CC[C@]1(O[C@@H]1O[C@H](CO)[C@@H](O)[C@H](O)[C@H]1O)C3 [Rubusoside]
[2] CC(C)c1ncc([N+](=O)[O-])n1C
Consider entries 1 and 2 . Which has the numerically lower collision cross section (N2)? Response format: the label of the selected entry.
2

---

Conditions: [M+H]+; instrument: TW; Major Mix IMS/Tof Calibration Kit (Waters)
OBSERVATION_TYPE: collision cross section (N2) (Å²)

1) CN1C(=O)CN=C(c2ccccc2)c2cc(Cl)ccc21 = 164.2
2) CNC(C)Cc1ccc2c(c1)OCO2 (stereo unspecified) = 144.9
3) O=C1CC(=O)N(c2ccccc2)c2cc(Cl)ccc2N1 = 161.7
4) CCN(C)C(=O)Oc1cccc([C@H](C)N(C)C)c1 = 165
5) COc1cc(Cc2cnc(N)nc2N)cc(OC)c1OC = 170.8
6) CSc1ccc2c(c1)N(CCC1CCCCN1C)c1ccccc1S2 (stereo unspecified) = 184.9
7) COc1ccc2c3c1O[C@H]1C[C@@H](O)C=C[C@@]31CCN(C)C2 = 166.9
8) C[C@]12Cc3cn[nH]c3C[C@@H]1CC[C@@H]1[C@@H]2CC[C@@]2(C)[C@H]1CC[C@]2(C)O = 188.1
9) O=C1Nc2ccc(Cl)cc2C(c2ccccc2)=NC1O (stereo unspecified) = 162.3
10) Cc1ncc2n1-c1ccc(Cl)cc1C(c1ccccc1F)=NC2 = 172.8
11) Cc1cccc(CN2CCN(C(c3ccccc3)c3ccc(Cl)cc3)CC2)c1 (stereo unspecified) = 208.2
12) NCCCC12CCC(c3ccccc31)c1ccccc12 = 163.1
13) Cc1ncc([N+](=O)[O-])n1CCO = 132.4
14) CCC1=C(C)CN(C(=O)NCCc2ccc(S(=O)(=O)NC(=O)NC3CCC(C)CC3)cc2)C1=O (stereo unspecified) [Glimepiride] = 216.6
15) COc1ccc2c3c1O[C@H]1C(=O)CC[C@H]4[C@@H](C2)N(C)CC[C@]314 [Hydrocodone] = 167.4
16) O=C(CCCN1CCC(O)(c2ccc(Cl)cc2)CC1)c1ccc(F)cc1 = 193.7
17) COc1cc2nc(N3CCN(C(=O)c4ccco4)CC3)nc(N)c2cc1OC = 192.7
18) Nc1ccc2c(c1)C(c1ccccc1Cl)=NCC(=O)N2 = 162.5
19) CCc1nn(CCCN2CCN(c3cccc(Cl)c3)CC2)c(=O)n1CCOc1ccccc1 = 211.7
20) CN(C)CCCN1c2ccccc2Sc2ccc(Cl)cc21 = 170.6
21) COc1ccc2c(c1)N(C[C@H](C)CN(C)C)c1ccccc1S2 = 176.8
22) CS(=O)(=O)c1ccc2c(c1)N(CCCN1CCC(C(N)=O)CC1)c1ccccc1S2 = 196.3
23) NC1(c2ccccc2Cl)CCCCC1=O (stereo unspecified) = 147.1
24) CCCCc1oc2ccccc2c1C(=O)c1cc(I)c(OCCNCC)c(I)c1 = 219.8
25) CCOc1ccc(NC(C)=O)cc1 = 139.4
26) C[C@@H](N)Cc1c2ccoc2c(Br)c2ccoc12 = 158.1
27) CNS(=O)(=O)Cc1ccc2[nH]cc(CCN(C)C)c2c1 = 162.1
28) O=C1CN=C(c2ccccn2)c2cc(Br)ccc2N1 = 159.8
29) O=C1CN=C(c2ccccc2)c2cc(Cl)ccc2N1 = 160.1
30) C/C=C1\N(C)C(C)CC1(c1ccccc1)c1ccccc1 (stereo unspecified) = 166.2
31) c1ccc(C(c2ccccc2)C2CCCCN2)cc1 (stereo unspecified) = 164.1
32) Cc1ccc(NC(=O)c2ccc(CN3CCN(C)CC3)cc2)cc1Nc1nccc(-c2cccnc2)n1 = 214.6
33) CC(C(=O)O)c1ccc(C(=O)c2ccccc2)s1 (stereo unspecified) = 155.1
34) CNC(C)C(=O)c1ccc(F)cc1 (stereo unspecified) = 139.8
35) CNCCC=C1c2ccccc2CCc2ccccc21 = 164.5
36) CN1C(C(=O)Nc2ccccn2)=C(O)c2ccccc2S1(=O)=O = 170.9
